Value source: paper PMC4057759

Biological target: baker's yeast ALDH1 (Saccharomyces cerevisiae)
Construct: purchased Sigma (St. Louis, MO, USA)
Sequence (P46367 25-519): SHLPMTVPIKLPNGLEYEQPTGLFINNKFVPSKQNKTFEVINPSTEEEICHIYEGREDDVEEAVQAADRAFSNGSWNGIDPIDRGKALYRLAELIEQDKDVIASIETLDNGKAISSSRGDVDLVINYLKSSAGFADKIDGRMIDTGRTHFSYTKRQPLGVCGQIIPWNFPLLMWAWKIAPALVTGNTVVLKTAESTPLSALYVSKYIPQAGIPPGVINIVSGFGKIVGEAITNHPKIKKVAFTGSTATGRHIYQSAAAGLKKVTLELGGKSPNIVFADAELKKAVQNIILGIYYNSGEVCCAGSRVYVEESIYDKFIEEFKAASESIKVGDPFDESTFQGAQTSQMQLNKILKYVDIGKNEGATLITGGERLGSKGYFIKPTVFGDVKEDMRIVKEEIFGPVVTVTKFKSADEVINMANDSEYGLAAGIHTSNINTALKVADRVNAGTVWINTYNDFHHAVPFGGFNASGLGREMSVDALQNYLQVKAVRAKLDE
Assay: In vitro ALDH1 inhibitory assay (propanal oxidation, NAD, OD 340 nm)
Assay type: biochemical
Details: Table 3, experimental activity; read-out: Actual pIC50 (converted)
reported metric: IC50 (µM)

The cases that follow already have their IC50 on record.
O=C1/C(=C/c2cc(O)cc(O)c2)CC/C1=C\c1cc(O)cc(O)c1	43.7
O=C(/C=C/c1ccc(O)c(O)c1)/C=C/c1ccc(O)c(O)c1	23.4

[a] COc1cc(/C=C2\CSC/C(=C\c3cc(OC)c(OC)c(OC)c3)C2=O)cc(OC)c1OC
[b] O=C1/C(=C/c2ccccn2)CC/C1=C\c1ccccn1
[c] O=C(/C=C/c1cc(Br)c(O)c(Br)c1)/C=C/c1cc(Br)c(O)c(Br)c1
[d] O=C1/C(=C/c2ccc(Br)cc2)CCC/C1=C\c1ccc(Br)cc1
[e] O=C1/C(=C/c2ccc(O)c(O)c2)CNC/C1=C\c1ccc(O)c(O)c1
stdin: Give the ascending ranking of the items by reported IC50. Returns: the labels listed in the requested order.
stdout: d, b, c, e, a
